Tested on: Salmonella typhi
Test: Antibacterial activity against Salmonella typhi ATCC 19430 after 18 hrs by agar dilution method
Assay type: functional, Salmonella enterica subsp. enterica serovar Typhi
Settings: Salmonella enterica, ATCC 19430, 18 h
Use MIC to assign classes; range list: low bracket (below 8 µM), middle bracket (8 µM to below 2000 µM), high bracket (2000 µM or more)

compound | cat
CCn1cc(C(=O)O)c(=O)c2cc(F)c(N3CCNCC3)cc21 [NORFLOXACIN] | low bracket
CC(C)C[C@@H](C(=O)O)n1cc(CN2CCN(c3cc4c(cc3F)c(=O)c(C(=O)O)cn4C3CC3)CC2)nn1 | high bracket
CCn1cc(C(=O)O)c(=O)c2cc(F)c(N3CCN(Cc4cn([C@@H](CC(C)C)C(=O)O)nn4)CC3)cc21 | high bracket
CCn1cc(C(=O)O)c(=O)c2cnc(N3CCN(Cc4cn([C@@H](C)C(=O)O)nn4)CC3)nc21 | high bracket
O=C(O)c1cn(C2CC2)c2cc(N3CCN(Cc4cn([C@@H](Cc5ccccc5)C(=O)O)nn4)CC3)c(F)cc2c1=O | high bracket
CCn1cc(C(=O)O)c(=O)c2cnc(N3CCN(Cc4cn(-c5ccccc5)nn4)CC3)nc21 | low bracket
C[C@@H](C(=O)O)n1cc(CN2CCN(c3cc4c(cc3F)c(=O)c(C(=O)O)cn4C3CC3)CC2)nn1 | high bracket
CCn1cc(C(=O)O)c(=O)c2cc(F)c(N3CCN(Cc4cn(-c5ccc([N+](=O)[O-])cc5)nn4)CC3)cc21 | low bracket
C#CCN1CCN(c2cc3c(cc2F)c(=O)c(C(=O)O)cn3CC)CC1 | middle bracket
O=C(O)c1cn(C2CC2)c2cc(N3CCN(Cc4cn(-c5ccccc5)nn4)CC3)c(F)cc2c1=O | low bracket
C#CCN1CCN(c2cc3c(cc2F)c(=O)c(C(=O)O)cn3C2CC2)CC1 | middle bracket
C#CCN1CCN(c2ncc3c(=O)c(C(=O)O)cn(CC)c3n2)CC1 | high bracket

###

Test system: Pseudomonas aeruginosa
Assay: Antibacterial activity against Pseudomonas aeruginosa ATCC 27853 after 18 hrs by agar dilution method
Format: functional
Settings: ATCC 27853, 18 h
MIC: recorded values
readout type: MIC (µM)

record smiles | value comparator | recorded result
O=C(Cn1cc(CN2CCN(c3cc4c(cc3F)c(=O)c(C(=O)O)cn4C3CC3)CC2)nn1)N[C@@H](Cc1ccccc1)C(=O)O | = | 2020
CCn1cc(C(=O)O)c(=O)c2cc(F)c(N3CCNCC3)cc21 | = | 15
CCn1cc(C(=O)O)c(=O)c2cc(F)c(N3CCN(Cc4cn(-c5ccc(C)cc5)nn4)CC3)cc21 | > | 2090
CCn1cc(C(=O)O)c(=O)c2cc(F)c(N3CCN(Cc4cn(-c5ccc([N+](=O)[O-])cc5)nn4)CC3)cc21 | > | 1960

###

MIC: recorded values
Tested on: Pseudomonas aeruginosa
Assay: Antibacterial activity against Pseudomonas aeruginosa ATCC 27853 after 18 hrs by agar dilution method
Format: functional
Details: ATCC 27853, 18 h

molecule | MIC
O=C(O)c1cn(C2CC2)c2cc(N3CCN(Cc4cn(-c5ccccc5)nn4)CC3)c(F)cc2c1=O | > 2100 µM
C#CCN1CCN(c2cc3c(cc2F)c(=O)c(C(=O)O)cn3C2CC2)CC1 | > 2770 µM
CCn1cc(C(=O)O)c(=O)c2cnc(N3CCNCC3)nc21 [PIPEMIDIC ACID] | 64.3 µM
O=C(O)c1cn(C2CC2)c2cc(N3CCN(Cc4cn([C@@H](Cc5ccccc5)C(=O)O)nn4)CC3)c(F)cc2c1=O | 2230 µM
C[C@@H](C(=O)O)n1cc(CN2CCN(c3cc4c(cc3F)c(=O)c(C(=O)O)cn4C3CC3)CC2)nn1 | 2580 µM
C#CCN1CCN(c2ncc3c(=O)c(C(=O)O)cn(CC)c3n2)CC1 | > 3000 µM
CCn1cc(C(=O)O)c(=O)c2cc(F)c(N3CCN(Cc4cn([C@@H](CC(C)C)C(=O)O)nn4)CC3)cc21 | 1210 µM
O=C(O)c1cn(C2CC2)c2cc(N3CCNCC3)c(F)cc2c1=O [CIPROFLOXACIN] | 14.5 µM
CCn1cc(C(=O)O)c(=O)c2cc(F)c(N3CCN(Cc4cn(CC(=O)N[C@@H](Cc5ccccc5)C(=O)O)nn4)CC3)cc21 | 2060 µM
